Assignment: determine reported IC50 for the given molecules.
system-tested: hTLR9 (Homo sapiens)
Sequence (Q9NR96 26-1032): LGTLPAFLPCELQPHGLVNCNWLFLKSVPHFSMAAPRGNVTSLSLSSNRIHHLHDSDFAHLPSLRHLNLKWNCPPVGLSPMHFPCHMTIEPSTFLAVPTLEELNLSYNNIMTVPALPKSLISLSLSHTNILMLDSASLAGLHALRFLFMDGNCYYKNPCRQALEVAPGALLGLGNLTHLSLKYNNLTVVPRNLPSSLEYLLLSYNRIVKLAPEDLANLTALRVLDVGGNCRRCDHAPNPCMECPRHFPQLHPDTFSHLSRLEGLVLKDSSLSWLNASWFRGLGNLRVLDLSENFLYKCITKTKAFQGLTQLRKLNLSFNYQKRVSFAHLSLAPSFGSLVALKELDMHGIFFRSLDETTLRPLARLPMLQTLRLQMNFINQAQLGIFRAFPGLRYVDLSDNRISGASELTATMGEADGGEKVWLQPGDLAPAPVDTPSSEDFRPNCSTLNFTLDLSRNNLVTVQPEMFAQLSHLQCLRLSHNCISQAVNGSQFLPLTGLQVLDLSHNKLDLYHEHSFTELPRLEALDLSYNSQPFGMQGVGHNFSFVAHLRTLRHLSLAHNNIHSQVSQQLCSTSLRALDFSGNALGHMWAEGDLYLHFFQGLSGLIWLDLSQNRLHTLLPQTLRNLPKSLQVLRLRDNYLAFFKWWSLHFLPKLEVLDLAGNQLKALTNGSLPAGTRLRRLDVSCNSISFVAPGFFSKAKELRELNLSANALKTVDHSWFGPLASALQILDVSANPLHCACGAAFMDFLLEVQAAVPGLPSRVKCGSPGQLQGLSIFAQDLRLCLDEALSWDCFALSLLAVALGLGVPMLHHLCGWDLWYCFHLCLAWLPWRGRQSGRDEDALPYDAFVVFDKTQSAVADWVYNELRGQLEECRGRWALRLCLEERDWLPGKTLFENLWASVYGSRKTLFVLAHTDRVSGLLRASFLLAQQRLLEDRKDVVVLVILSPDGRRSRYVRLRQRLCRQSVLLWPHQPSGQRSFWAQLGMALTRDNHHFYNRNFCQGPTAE
method: HEK293-Blue-hTLR-9 cells assay (SEAP reporter, ODN2006 stimulation)
Type: cell-based
assay-context: HEK293-Blue-hTLR9 cells, ODN2006, 20 hrs; 0.032 is the lowest tested concentration; read-out: HEK/hTLR9 IC50
Please answer in the form of a number followed by its unit of measurement.

Exercise: Return the recorded IC50 value; entry: C[C@@H]1CN(c2ccc(C#N)n3ncc(F)c23)C[C@H](CN2CCc3cc(N4CCNCC4)ccc3C2)O1 [Example 14]
Solution: 117 nM

Exercise: Note down IC50 recorded for C[C@@H]1CN(c2ccc(C#N)c3ncccc23)C[C@H](CN2CCc3cc(N4CCNCC4)ccc3C2)O1 [Example 19]
Solution: 64 nM

Exercise: Kindly indicate its recorded IC50. Item: C[C@@H]1CN(c2ccc(C#N)c3ncccc23)C[C@H](CN2Cc3ccc(N4CCNCC4CO)cc3C2)O1 (stereo partly shown) [Example 73]
Solution: 60 nM

Exercise: Please supply the value of reported IC50 for the item C[C@@H]1CN(c2ccc(C#N)n3nccc23)C[C@H](CN2CCc3cc(N4CCN(C)CC4)ccc3C2)O1 [Example 15]
Solution: 46 nM

Exercise: State its IC50 for this molecule: COC(=O)C1CN(c2ccc3c(c2)CN(C[C@H]2CN(c4ccc(C#N)c5ncccc45)C[C@@H](C)O2)C3)CCN1 (stereo partly shown) [Example 67]
Solution: 221 nM

Exercise: Provide IC50 value for the following molecule: C[C@@H]1CN(c2ccc(C#N)n3nccc23)C[C@H](CN2Cc3ccc(OCCN(C)C)cc3C2)O1 [Example 28]
Solution: 93 nM

Exercise: Respond only with IC50 recorded for C[C@@H]1CN(c2ccc(C#N)n3nccc23)C[C@H](CN2CCc3ccc(N4CCNCC4)cc3C2)O1 [Example 11]
Solution: 60 nM

----------
system-tested: hTLR7 (Homo sapiens, UniProt Q9NYK1)
Sequence (Q9NYK1 27-1049): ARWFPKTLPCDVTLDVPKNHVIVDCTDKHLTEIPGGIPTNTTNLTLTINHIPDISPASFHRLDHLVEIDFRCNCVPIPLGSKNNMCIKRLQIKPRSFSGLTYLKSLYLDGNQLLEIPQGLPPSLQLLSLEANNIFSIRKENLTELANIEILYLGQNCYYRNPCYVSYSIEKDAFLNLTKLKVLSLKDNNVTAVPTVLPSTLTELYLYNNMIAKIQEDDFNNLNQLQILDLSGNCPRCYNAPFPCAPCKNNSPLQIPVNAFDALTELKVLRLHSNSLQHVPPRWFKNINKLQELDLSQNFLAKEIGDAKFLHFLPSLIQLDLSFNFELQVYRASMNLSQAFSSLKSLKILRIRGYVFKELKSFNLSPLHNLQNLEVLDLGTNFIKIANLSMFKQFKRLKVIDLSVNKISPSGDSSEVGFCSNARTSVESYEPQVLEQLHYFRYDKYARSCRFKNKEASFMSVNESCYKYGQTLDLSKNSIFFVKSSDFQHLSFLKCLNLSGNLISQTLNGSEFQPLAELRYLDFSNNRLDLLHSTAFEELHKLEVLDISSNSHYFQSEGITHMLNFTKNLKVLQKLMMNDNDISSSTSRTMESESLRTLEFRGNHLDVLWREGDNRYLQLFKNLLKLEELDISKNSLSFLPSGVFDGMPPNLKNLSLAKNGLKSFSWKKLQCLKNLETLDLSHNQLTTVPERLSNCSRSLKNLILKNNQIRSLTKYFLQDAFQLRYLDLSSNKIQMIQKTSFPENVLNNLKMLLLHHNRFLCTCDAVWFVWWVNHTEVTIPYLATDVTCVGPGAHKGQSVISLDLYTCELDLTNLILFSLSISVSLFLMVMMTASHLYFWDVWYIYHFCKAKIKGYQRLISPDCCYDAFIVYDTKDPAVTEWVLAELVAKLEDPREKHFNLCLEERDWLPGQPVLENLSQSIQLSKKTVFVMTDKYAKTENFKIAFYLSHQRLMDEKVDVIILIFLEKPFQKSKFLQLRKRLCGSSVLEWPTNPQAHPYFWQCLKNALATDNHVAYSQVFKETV
method: HEK293-Blue-hTLR-7 cells assay (SEAP reporter, R848 stimulation)
Type: cell-based
assay-context: HEK293-Blue-hTLR7 cells, R848, 20 hrs; 0.003 is the lowest tested concentration; read-out: HEK/hTLR7 IC50
property-label: IC50 (nM)
Field format: number, assumed nM, no unit text.

Exercise: Identify measured IC50 obtained with hTLR7 (Homo sapiens, UniProt Q9NYK1) for C[C@@H]1CN(c2ccc(C#N)c3ncccc23)C[C@H](CN2Cc3cc(N4CCN(C)CC4)cc(F)c3C2)O1 .
Solution: 43

Exercise: Report IC50 on hTLR7 (Homo sapiens, UniProt Q9NYK1) for this entry: C[C@@H]1CN(c2ccc(C#N)c3ncccc23)C[C@H](CNCc2ccc(N3CCNCC3)cc2)O1
Solution: 15

Exercise: Would you please give the reported IC50 of C[C@@H]1CN(c2ccc(C#N)c3ncccc23)C[C@H](CN2Cc3cc(N4CCNCC4)cc(F)c3C2)O1 with hTLR7 (Homo sapiens, UniProt Q9NYK1)?
Solution: 18

Exercise: Report IC50 under test system hTLR7 (Homo sapiens, UniProt Q9NYK1) for C[C@@H]1CN(c2ccc(C#N)c3ncsc23)C[C@H](CN2Cc3cc(N4CCNCC4)cnc3C2)O1 .
Solution: 11

Exercise: # return IC50 of C[C@@H]1CN(c2ccc(C#N)n3nccc23)C[C@H](CN2Cc3ccc(N4CCN(C)CC4)cc3C2)O1 (system: hTLR7 (Homo sapiens, UniProt Q9NYK1))
Solution: 65

Exercise: Tell me its IC50 on hTLR7 (Homo sapiens, UniProt Q9NYK1): C[C@@H]1CN(c2ccc(C#N)c3ncccc23)C[C@H](CN2Cc3ccc(N4CCNC[C@H]4CO)cc3C2)O1
Solution: 34

----------
system-tested: UniProt:Q9NR96
method: HEK293-Blue-hTLR-9 cells assay (SEAP reporter, ODN2006 stimulation)
Format: cell-based
assay-context: HEK293-Blue-hTLR9 cells, ODN2006, 20 hrs; 0.032 is the lowest tested concentration; read-out: HEK/hTLR9 IC50
property-label: IC50 (µM)
# unit: µM | format: bare number

Exercise: Give reported IC50 for C[C@@H]1CN(c2ccc(Cl)c3ncccc23)C[C@H](CN2Cc3ccc(N4CCNCC4)cc3C2)O1 (UniProt:Q9NR96)
Solution: 0.168

Exercise: Provide IC50, system UniProt:Q9NR96, entry C[C@@H]1CN(c2ccc(C#N)c3ncccc23)C[C@H](CN2Cc3ccc(N4CCN[C@@H](C)C4)cc3C2)O1
Solution: 0.075

Exercise: System UniProt:Q9NR96. Read-out IC50. Item C[C@@H]1CN(c2ccc(C#N)n3nccc23)C[C@H](CN2CCc3cc(N4CCNCC4)ccc3C2)O1 . Report value.
Solution: 0.067

Exercise: Would you please give the reported IC50 of C[C@@H]1CN(c2ccc(C#N)n3nccc23)C[C@H](CN2Cc3ccncc3C2)O1 [Example R2, reference compound] with UniProt:Q9NR96?
Solution: 47

Exercise: Report IC50 on UniProt:Q9NR96 for this entry: C[C@@H]1CN(c2ccc(C#N)c3nccnc23)C[C@H](CN2Cc3ccc(N4CCN(C5CC5)CC4)cc3C2)O1
Solution: 0.216

Exercise: Tell me IC50 of C[C@@H]1CN(c2ccc(C#N)c3ncsc23)C[C@H](CN2CCc3cc(N4CCNCC4)ccc3C2)O1 when tested on UniProt:Q9NR96.
Solution: 0.081

Exercise: Answer briefly: IC50 recorded on UniProt:Q9NR96 for C[C@@H]1CN(c2ccc(C#N)c3nccnc23)C[C@H](CN2Cc3ccc(N4CCN5CCCCC5C4)cc3C2)O1 (some centres unmarked)
Solution: 0.122

Exercise: Fill in: IC50 on UniProt:Q9NR96, entry CC1CN(c2ccc3c(c2)CN(C[C@H]2CN(c4ccc(C#N)c5nccnc45)C[C@@H](C)O2)C3)CCN1 (some centres unmarked)
Solution: 0.057

Exercise: Report measured IC50 on UniProt:Q9NR96; entry: C[C@@H]1CN(c2ccc3c(c2)CN(C[C@H]2CN(c4ccc(C#N)c5ncccc45)C[C@@H](C)O2)C3)C[C@@H](C)N1 (mixture of isomers)
Solution: 0.098

Exercise: Name the recorded IC50 of CC1CNCCN1c1ccc2c(c1)CN(C[C@H]1CN(c3ccc(C#N)c4ncccc34)C[C@@H](C)O1)C2 (some centres unmarked) , assay system UniProt:Q9NR96.
Solution: 0.163

Exercise: Tell me its IC50 on UniProt:Q9NR96: C[C@@H]1CN(c2ccc(C#N)n3nccc23)C[C@H](CN2Cc3ccc(C4CCNCC4)cc3C2)O1
Solution: 0.062

Exercise: Send back UniProt:Q9NR96 IC50 of C[C@@H]1CN(c2ccc(C#N)c3nccnc23)C[C@H](CN2Cc3cnc(N4CCNCC4)cc3C2)O1 only.
Solution: 0.046

Exercise: Find the measured IC50 of C[C@@H]1CN(c2ccc(C#N)c3nccnc23)C[C@H](CN2Cc3ccc(N4CC5COCC(C4)N5)cc3C2)O1 with UniProt:Q9NR96 as test system.
Solution: 0.164
